What pIC50 was measured for each of the following?
biological target: Cyclin-dependent kinase 2/cyclin E1 (Homo sapiens); experiment: Inhibition of CDK2/cyclin E (unknown origin) expressed in baculovirus infected insect Sf9 cells assessed as inhibition of GST-tagged Rb phosphorylation after 30 mins in presence of [33P]-ATP
pIC50 here: minus log base 10 of the concentration, concentration in moles per litre.

Form field pIC50, entry CC(N)c1csc(/C=N/Nc2ncnc3sc(C(C)(C)C)cc23)n1 (stereo not drawn) : 6.08

Please fill in: pIC50 reported for CC(N)c1csc(/C=N/Nc2ncnc3sc(C(C)C(C)C)cc23)n1 (stereo not drawn) = 6.06

Quick note, pIC50 for `CC(C)(C)c1cc2c(N/N=C/c3nccs3)ncnc2s1` landed at 6.70

----------
molecular target: Cyclin-dependent kinase 2/cyclin E1 (Homo sapiens, UniProt P24941); assay: Inhibition of recombinant CDK2/GST-fused cyclin E (unknown origin) expressed in baculovirus infected insect Sf9 cells by substrate phosphorylation assay in presence of [33P]-gamma adenosine triphosphate
READOUT NAME: IC50 (nM)
Form entry: value (nM) — number only.

Form field IC50, entry C[C@@H](O)[C@@H](C)Oc1nc(Nc2ccc([S+](N)[O-])cc2)ncc1Br (stereo not given in full) : 9

Lookup result for `CC[S@@](=N)(=O)c1ccc(Nc2ncc(Br)c(N[C@H](C)[C@@H](C)O)n2)cc1` ; measured IC50: 2

Query `C#CCNc1nc(Nc2ccccc2)ncc1Br` yields IC50 of 100

Reported IC50 for `C[C@H](CO)Nc1nc(Nc2ccc(S(N)(=O)=O)cc2)ncc1Br` was 4

Recorded result, C[C@@H](O)[C@@H](C)Nc1nc(Nc2ccc([S+](N)[O-])cc2)ncc1Br (stereo not given in full) , IC50: 10

----------
target: Cyclin-dependent kinase 2/cyclin A (Homo sapiens, UniProt P24941); test: Competitive inhibition of human CDK2/cyclinA using PKTPKKAKKL as substrate in presence of ATP; assay type: protein-complex assay
READOUT NAME: IC50 (µM)
The reply should contain only the number, in µM.

Recorded IC50 (compound N[S+]([O-])c1ccc(/N=N/c2ccc(O)[nH]c2=O)cc1 (stereo unspecified) ): 45

----------
Could you please report measured pIC50 for the items listed next?
molecular target: Cyclin-dependent kinase 4/cyclin D1 (Homo sapiens, UniProt P11802); experiment: Inhibition of human CDK4/cyclin D1 expressed in insect cells assessed as phosphorylation of CTRF after 50 mins by microplate scintillation counter
Sequence (P11802 whole entry): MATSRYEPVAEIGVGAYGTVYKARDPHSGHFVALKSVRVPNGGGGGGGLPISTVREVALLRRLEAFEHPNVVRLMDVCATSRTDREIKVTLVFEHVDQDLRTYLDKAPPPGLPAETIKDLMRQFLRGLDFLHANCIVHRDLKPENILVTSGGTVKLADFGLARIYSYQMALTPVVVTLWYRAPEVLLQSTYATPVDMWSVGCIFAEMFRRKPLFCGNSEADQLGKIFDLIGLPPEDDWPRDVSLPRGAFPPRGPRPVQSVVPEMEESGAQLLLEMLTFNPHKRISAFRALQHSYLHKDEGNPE
Sequence (P24385 whole entry, further chain): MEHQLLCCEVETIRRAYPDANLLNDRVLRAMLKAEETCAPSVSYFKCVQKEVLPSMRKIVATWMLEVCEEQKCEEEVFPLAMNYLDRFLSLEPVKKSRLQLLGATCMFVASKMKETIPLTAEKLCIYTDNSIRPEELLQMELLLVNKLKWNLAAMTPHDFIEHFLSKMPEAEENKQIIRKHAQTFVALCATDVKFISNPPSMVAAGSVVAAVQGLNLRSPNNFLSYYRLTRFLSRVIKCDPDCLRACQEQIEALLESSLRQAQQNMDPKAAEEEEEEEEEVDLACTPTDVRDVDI
pIC50 field: float, defined as -log10 of concentration (mol/L).

Record for `Cc1nc2ccc(-c3ccnc(Nc4ccc(CN5CCN(C(C)C)CC5)cn4)n3)cc2n1C(C)C` under target or system Cyclin-dependent kinase 4/cyclin D1 (Homo sapiens, UniProt P11802): pIC50 reported as 8.70

Entry `COc1ccc(Nc2nccc(-c3ccc4nc(C)n(C(C)C)c4c3)n2)cc1` under Cyclin-dependent kinase 4/cyclin D1 (Homo sapiens, UniProt P11802) had pIC50 of 8.40

Entry `Cc1nc2ccc(-c3ccnc(Nc4ccc(N5CCNCC5)cn4)n3)cc2n1C(C)C` ; assay system Cyclin-dependent kinase 4/cyclin D1 (Homo sapiens, UniProt P11802); pIC50 recorded at 8.70

----------
biological target: Cyclin-dependent kinase 4/cyclin D1 (Homo sapiens); test: Inhibition of CDK4/cyclin D1 (unknown origin) expressed in baculovirus infected insect Sf9 cells assessed as inhibition of GST-tagged Rb phosphorylation after 30 mins in presence of [33P]-ATP
For each of the compounds below, state its IC50.
Supply the numeric figure in nM, leaving out any unit text.

Lab entry: Cyclin-dependent kinase 4/cyclin D1 (Homo sapiens) assay, compound CC(N)c1csc(/C=N/Nc2ncnc3sc(C(C)(C)C)cc23)n1 (stereo not drawn) , IC50 = 19

// returns IC50 for CC(N)c1csc(/C=N/Nc2ncnc3sc(C(C)C(C)C)cc23)n1 (stereo not drawn) with Cyclin-dependent kinase 4/cyclin D1 (Homo sapiens); value = 22

# `CC(C)(C)c1cc2c(N/N=C/c3nccs3)ncnc2s1` with Cyclin-dependent kinase 4/cyclin D1 (Homo sapiens): IC50 is 41
